System: Plasmodium falciparum
testDescription: Confirmatory screen in NF54 pLDH assay, in single point, at 2uM, 72h
Type: functional, Erythrocyte
experimentalContext: timepoint 72 hour
The whole screen tested about 4,800 compounds, of which about 410 (8.5%) showed an effect of 50% or more. This is one part of a sample in which strong results are shown more often than they occur.
What % Inhibition was measured for each of the following?
Express your answer in %, writing the number without its unit.

Any idea what % Inhibition was measured for CCC1CCCC(NS(=O)(=O)CCC(C)(C)C)C1 (stereo not given) ?
-12

Any idea what % Inhibition was measured for CN(C)c1ccc(C(=O)N2CC[C@H]3NC(=O)N(Cc4ccccc4)C(=O)[C@H]32)cc1 ?
-5

Any idea what % Inhibition was measured for O=C(N[C@@H](N1CCOCC1)C(Cl)(Cl)Cl)c1ccccc1Cl ?
8

Any idea what % Inhibition was measured for Nc1c(-c2nc3ccccc3[nH]2)c2nc3ccccc3nc2n1Cc1ccccc1F ?
62

Any idea what % Inhibition was measured for COc1ccc(C2=CN(CC(=O)c3ccc(Cl)cc3)C3=CCCCCN23)cc1 ?
41

Any idea what % Inhibition was measured for CCNC(=O)NCCOC(=O)Cc1cc(Cl)cc2c1OCC2 ?
-1

Any idea what % Inhibition was measured for COc1ccc2nc(C(F)(F)F)nc(N3CCNC(=O)CCN(C(=O)C(F)=C4CCCC4)CC3)c2c1 ?
14

Any idea what % Inhibition was measured for Cc1cc2nnc(-c3nc4ccccc4[nH]3)c(N)n2n1 ?
-2

Any idea what % Inhibition was measured for CCOc1cc(CNC2CCN(C(C)=O)CC2)ccc1OCc1c(F)cccc1Cl ?
13

Any idea what % Inhibition was measured for CCOc1ccc(-c2cc3c(=O)n(CCC(=O)N4CCCC4)ccn3n2)cc1 ?
7
